Test system: primary human AML cells
TEST_DETAILS: Primary screen: differentiation of primary human AML cells in vitro (CD34/CD15, HTS flow cytometry)
ASSAY_CONTEXT: compared to DMSO
Label Yes when % increase CD34+ (cell counts) is strictly below 20%; at or above that, label No.

Answered cases to consult:
molecule="COc1ccc2c(c1)[nH]c1c(C)nccc12.Cl [UM0118303, Harmine hydrochloride]" qualitative_label=Yes
molecule=COc1cc(OC)c2c(=O)cc(-c3ccccc3)oc2c1 qualitative_label=No
molecule=COc1cccc2oc(-c3ccccc3)cc(=O)c12 qualitative_label=No
molecule=COc1c(-c2ccccc2)oc2c(OC)cccc2c1=O qualitative_label=No
molecule=Cc1cc(=O)oc2cc(O)c(O)cc12 qualitative_label=Yes
molecule=C[C@]12CCC(=O)C=C1CC[C@@H]1[C@@H]2CC[C@]2(C)C(=O)CC[C@@H]12 qualitative_label=Yes
molecule=O=c1c2ccccc2oc2ccccc12 qualitative_label=No
molecule="NC(=Nc1ccccc1)NC(=O)c1nc(Cl)c(N)nc1N [UM0120143, Phenamil methanesulfonate]" qualitative_label=No
molecule="O.O.O=c1c(O)c(-c2ccc(O)c(O)c2)oc2cc(O)cc(O)c12 [UM0118473, Quercetine dihydrate]" qualitative_label=Yes
molecule=O=c1cc(-c2ccc(O)cc2)oc2cc(O)cc(O)c12 qualitative_label=No

Q) Threshold test, % increase CD34+ (cell counts) < 20%: CC(=O)Oc1ccc(-c2cc(=O)c3c(OC(C)=O)cc(OC(C)=O)cc3o2)cc1 [UM0121171, Apigenin triacetate]
A) Yes

Q) Decide: % increase CD34+ (cell counts) of COc1cc(-c2oc3cc(O)ccc3c(=O)c2O)ccc1O strictly below 20%?
A) Yes

Q) Strictly below 20%: is that where % increase CD34+ (cell counts) of O=c1c(O)c(-c2ccccc2)oc2cc(O)cc(O)c12 sits?
A) Yes

Q) Report whether reported % increase CD34+ (cell counts) is lower than 20% (strictly) for CC[C@H](C)C(=O)O[C@H]1C[C@@H](C)C=C2C=C[C@H](C)[C@H](CC[C@@H]3C[C@@H](O)CC(=O)O3)[C@H]21
A) Yes

Q) # check: % increase CD34+ (cell counts) < 20% for COC(=O)/C(C)=C\CC12OC(C)(C)C3CC(C=C4C(=O)c5c(OC)c6c(c(CC=C(C)C)c5OC431)OC(C)(CCC=C(C)C)C=C6)C2=O (stereo not shown) [UM0120889, Dimethyl gambogate]
A) Yes

Origin of measurements: patent US9757378B2
